Below: a set of entries, each annotated with reported TGI.
Test system: A549 NSCLC
TEST_DESCRIPTION: NCI tumour cell line growth inhibition, 48 h

Ask | I have this compound here, Cc1c(Cl)ccc2c1NC(=O)C2(O)CC(=O)c1ccc(Cl)cc1Cl (stereo unspecified) , and I need its recorded TGI.
Reply | > 50 µM

Ask | Proceed to `O=C(C=P(c1ccccc1)(c1ccccc1)c1ccccc1)C12CC3CC(CC(C3)C1)C2`
Reply | 36 µM

Ask | Proceed to `COc1c(C2(c3ccc(F)cc3)SCCCS2)c(=O)c1=O`
Reply | > 100 µM

Ask | Proceed to `CN(NC(=O)c1ccco1)C1=NCCCCN1`
Reply | > 100 µM

Ask | Proceed to COC(=O)OC[C@H]1O[C@@H](n2cc(C)c(=O)[nH]c2=O)CC1OC(=O)OC (stereo partly specified)
Reply | > 100 µM

Ask | Proceed to CCCCCCC1CCC2CCCC(C)N12 (stereo unspecified)
Reply | > 100 µM

====

Below: a set of entries, each annotated with reported TGI.
System: HOP-62 NSCLC
TEST_DESCRIPTION: NCI tumour cell line growth inhibition, 48 h

Ask | Lab note: need TGI with HOP-62 NSCLC for entry `Cc1cccc(C)c1NC(=O)CCC(=O)NNC(=O)c1cc(O)c2ccccc2c1` , please look it up.
Reply | > 100 µM

Ask | Proceed to `CCC(=O)Sc1ccccc1C(=O)Nc1ccc(Cl)cc1`
Reply | 34.2 µM

Ask | Proceed to O=C(CCN1CCCCC1CCO)Nc1ccc2c(c1)C(=O)c1ccc(NC(=O)CCN3CCCCC3CCO)cc1C2=O (stereo unspecified)
Reply | 21.4 µM

Ask | Proceed to Cc1ccc(OP2(=O)Oc3ccc4ccccc4c3CN2c2ccc(Cl)cc2)cc1C (stereo unspecified)
Reply | > 100 µM

Others:
Ask | Lab note: need TGI with HOP-62 NSCLC for entry `c1cc(-c2cscc2-c2ccsc2)cs1` , please look it up.
Reply | > 100 µM

Ask | Proceed to `O=c1[nH]cnc2c1nnn2CCCn1nnc2c(=O)[nH]cnc21`
Reply | > 100 µM

====

Test system: HS 578T breast
TEST_DESCRIPTION: NCI tumour cell line growth inhibition, 48 h
MEASURE: TGI

Consider the worked cases shown below.
Ask | I have this molecule here, `Cc1ccc(N=Nc2c(O)c3ccccc3[nH]c2=O)c(S(=O)(=O)N(C)C)c1` , and I need its recorded TGI.
Reply | > 100 µM

Ask | Proceed to CC12CC3c4ccccc4CN1C3(c1ccccc1)OC2=O (stereo not given)
Reply | > 100 µM

Ask | Proceed to `CN1CC(c2ccccc2)=Cc2c1ccc(N)c2N=N`
Reply | > 100 µM

Ask | Proceed to `COc1ccc(NC(=S)NN=C(C)c2cccc(C(C)=NNC(=S)Nc3ccc(OC)cc3)n2)cc1`
Reply | > 100 µM

Ask | Proceed to `CN(NC(=O)c1ccco1)C1=NCCCCN1`
Reply | > 100 µM

Ask | Proceed to `Brc1c[n+](Cc2ccc3ccccc3c2)cn1Cc1ccc2ccccc2c1`
Reply | 4.84 µM

Others:
Ask | I have this molecule here, `COC[C@H]1C(=O)NCC(=O)N2NCCC[C@H]2C(=O)N(O)[C@H](C)C(=O)O[C@@H](C(C)C)[C@H](NC(=O)[C@](C)(O)[C@]2(O)CC[C@@H](CC(C)C)[C@H](C)O2)C(=O)N2NCCC[C@@H]2C(=O)N1O` , and I need its recorded TGI.
Reply | 0.0244 µM

Ask | Proceed to COc1cc2c(cc1OC)C13CCN4CC5=CCOC(CC(=O)O)C(C5CC41)C3N2 (stereo not given)
Reply | > 100 µM

Ask | Proceed to `c1ccc(COc2ccc(C[P+](c3ccccc3)(c3ccccc3)c3ccccc3)cc2)cc1`
Reply | 3.19 µM

Ask | Proceed to N#Cc1c(-c2ccco2)c2c(n(C3OC(CO)C(O)C(O)C3O)c1=S)CCCC2 (stereo not given)
Reply | > 100 µM

Ask | Proceed to `O=S(=O)(O)c1ccc(NN(c2c(O)ccc3ccccc23)S(=O)(=O)O)cc1`
Reply | > 100 µM

Ask | Proceed to `O=C(NCc1cn(Cc2cccc(Oc3ccccc3)c2)nn1)c1cccnc1Nc1ccccc1`
Reply | > 100 µM

Ask | Proceed to `CC1=CC[C@@H]2[C@@H](CC[C@@]2(C)O)C(C)(C)[C@H]1CC[C@@H]1[C@@]2(C)CCC(=O)C(C)(C)O[C@@H]2CC[C@]1(C)O`
Reply | 77 µM

Ask | Proceed to C=CC1CC12C(=O)C1OC2(C)C2C(=O)c3ccccc3C(=O)C12 (stereo not given)
Reply | 98.2 µM
